Attribute: Ki
target: D(1A) dopamine receptor (Sus scrofa, UniProt P50130); assay: Displacement of [3H]SCH23990 from dopamine D1 receptor in pig striatal membrane
Sequence (P50130 whole entry): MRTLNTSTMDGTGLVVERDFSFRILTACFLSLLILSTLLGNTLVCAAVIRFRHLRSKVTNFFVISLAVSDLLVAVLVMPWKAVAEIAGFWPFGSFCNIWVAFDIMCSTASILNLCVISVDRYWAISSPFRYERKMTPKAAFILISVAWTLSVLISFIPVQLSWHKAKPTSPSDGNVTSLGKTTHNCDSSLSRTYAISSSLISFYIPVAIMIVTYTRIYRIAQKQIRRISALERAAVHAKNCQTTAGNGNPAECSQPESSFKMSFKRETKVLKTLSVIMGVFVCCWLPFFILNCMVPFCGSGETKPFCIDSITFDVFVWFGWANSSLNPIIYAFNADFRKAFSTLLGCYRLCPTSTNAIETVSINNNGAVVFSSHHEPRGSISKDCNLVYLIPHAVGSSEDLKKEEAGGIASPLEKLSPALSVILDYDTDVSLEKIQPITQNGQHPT
# number then unit; no other words

Examples with their reported Ki follow.
C=CCN1CCC[C@H]1CNC(=O)c1cc(I)ccc1OC | 13 µM
C=CCN1CCC[C@H]1CNC(=O)c1cc(Br)cc(OC)c1OC | 13 µM
CCN1CCC[C@H]1CNC(=O)c1c(OC)ccc(I)c1O [IOLOPRIDE] | 12 µM
C=CCN1CCC[C@H]1CNC(=O)c1cc(CCCF)cc(OC)c1OC [FALLYPRIDE] | 18 µM
C=CCN1CCC[C@H]1CNC(=O)c1cc(Br)ccc1OC | 17 µM
C=CCN1CCC[C@H]1CNC(=O)c1cc(CCCF)ccc1OC | 30 µM
CCN1CCC[C@H]1CNC(=O)c1c(O)c(Cl)cc(Cl)c1OC [RACLOPRIDE] | 37 µM

[ask] Given the entry `C=CCN1CCC[C@H]1CNC(=O)c1cc(I)cc(OC)c1OC` , report its measured Ki.
[reply] 18 µM

====

target: D(2) dopamine receptor (Homo sapiens, UniProt P14416); experiment: Displacement of [3H]spiperone from dopamine D2short receptor in CHO cells; type: cell-based
Sequence (P14416 whole entry): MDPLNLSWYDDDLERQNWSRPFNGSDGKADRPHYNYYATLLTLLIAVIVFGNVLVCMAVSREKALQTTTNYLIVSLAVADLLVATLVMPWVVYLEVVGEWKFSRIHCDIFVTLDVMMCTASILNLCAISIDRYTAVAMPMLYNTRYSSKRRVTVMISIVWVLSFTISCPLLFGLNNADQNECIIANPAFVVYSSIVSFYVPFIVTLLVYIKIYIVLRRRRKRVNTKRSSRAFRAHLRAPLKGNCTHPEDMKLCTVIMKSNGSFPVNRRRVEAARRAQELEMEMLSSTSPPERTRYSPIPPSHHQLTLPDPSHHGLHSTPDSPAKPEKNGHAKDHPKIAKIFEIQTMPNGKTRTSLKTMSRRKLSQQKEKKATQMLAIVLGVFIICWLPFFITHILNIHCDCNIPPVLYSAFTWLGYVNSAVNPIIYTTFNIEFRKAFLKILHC
experimental-readout: Ki (nM)
Your answer is read as nM, so omit the unit and give the number.

Completed entries (count: 6):
C=CCN1CCC[C@H]1CNC(=O)c1cc(Br)ccc1OC | 27
C=CCN1CCC[C@H]1CNC(=O)c1cc(CCCF)cc(OC)c1OC [FALLYPRIDE] | 2.1
C=CCN1CCC[C@H]1CNC(=O)c1cc(I)ccc1OC | 15
C=CCN1CCC[C@H]1CNC(=O)c1cc(I)cc(OC)c1OC | 0.74
CCN1CCC[C@H]1CNC(=O)c1c(OC)ccc(I)c1O [IOLOPRIDE] | 4.2
C=CCN1CCC[C@H]1CNC(=O)c1cc(CCCF)ccc1OC | 30

Let us examine a further case.
[ask] Given `C=CCN1CCC[C@H]1CNC(=O)c1cc(Br)cc(OC)c1OC` , state its recorded Ki.
[reply] 0.88

====

Measured logD values are reported for all entries that follow.
experiment: Lipophilicity, log D at pH 7.4; settings: buffer

[ask] logD lookup needed for `C=CCN1CCC[C@H]1CNC(=O)c1cc(Br)cc(OC)c1OC` , thanks.
[reply] 2.83

[ask] Then what about the molecule CCN1CCC[C@H]1CNC(=O)c1c(OC)ccc(I)c1O [IOLOPRIDE] ?
[reply] 3.13

[ask] Check `C=CCN1CCC[C@H]1CNC(=O)c1cc(CCCF)ccc1OC` too.
[reply] 2.63

[ask] Query `C=CCN1CCC[C@H]1CNC(=O)c1cc(I)ccc1OC` next
[reply] 2.81

[ask] Also C=CCN1CCC[C@H]1CNC(=O)c1cc(CCCF)cc(OC)c1OC [FALLYPRIDE] , if possible.
[reply] 2.66

[ask] Query `C=CCN1CCC[C@H]1CNC(=O)c1cc(I)cc(OC)c1OC` next
[reply] 2.91

[ask] `C=CCN1CCC[C@H]1CNC(=O)c1cc(Br)ccc1OC` ?
[reply] 2.71

====

Attribute: pKi
test: Displacement of [3H]ketanserin from serotonin 5-HT2 receptor in pig cortical membrane
The value called pKi is obtained by taking minus log10 of the concentration in mol/L.

C=CCN1CCC[C@H]1CNC(=O)c1cc(Br)ccc1OC | 5.68
C=CCN1CCC[C@H]1CNC(=O)c1cc(CCCF)cc(OC)c1OC [FALLYPRIDE] | 5.43
C=CCN1CCC[C@H]1CNC(=O)c1cc(I)cc(OC)c1OC | 6.31
CCN1CCC[C@H]1CNC(=O)c1c(O)c(Cl)cc(Cl)c1OC [RACLOPRIDE] | 5.46
C=CCN1CCC[C@H]1CNC(=O)c1cc(CCCF)ccc1OC | 5.35

[ask] // query pKi value for entry `C=CCN1CCC[C@H]1CNC(=O)c1cc(Br)cc(OC)c1OC`
[reply] 5.96

[ask] Next compound: `C=CCN1CCC[C@H]1CNC(=O)c1cc(I)ccc1OC`
[reply] 5.62

[ask] Try this compound next: CCN1CCC[C@H]1CNC(=O)c1c(OC)ccc(I)c1O [IOLOPRIDE]
[reply] 5.70

====

This listing pairs compounds with measured pKi.
molecular target: D(4) dopamine receptor (Homo sapiens, UniProt P21917); assay: Displacement of [3H]spiperone from dopamine D4.4 receptor in CHO cells
Sequence (P21917 whole entry): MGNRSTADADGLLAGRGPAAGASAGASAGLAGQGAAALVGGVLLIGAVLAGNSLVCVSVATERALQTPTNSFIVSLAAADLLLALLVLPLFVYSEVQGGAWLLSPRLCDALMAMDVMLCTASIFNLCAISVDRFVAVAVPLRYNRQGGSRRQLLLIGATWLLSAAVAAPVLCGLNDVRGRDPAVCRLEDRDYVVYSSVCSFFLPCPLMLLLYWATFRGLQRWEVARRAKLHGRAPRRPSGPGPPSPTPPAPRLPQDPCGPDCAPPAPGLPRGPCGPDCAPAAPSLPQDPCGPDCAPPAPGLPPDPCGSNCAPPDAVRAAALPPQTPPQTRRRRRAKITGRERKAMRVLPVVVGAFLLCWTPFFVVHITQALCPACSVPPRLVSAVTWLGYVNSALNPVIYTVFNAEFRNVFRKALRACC
Please express pKi as -log10 of the molar concentration.

Worked set:
C=CCN1CCC[C@H]1CNC(=O)c1cc(I)cc(OC)c1OC | 6.60
C=CCN1CCC[C@H]1CNC(=O)c1cc(CCCF)cc(OC)c1OC [FALLYPRIDE] | 5.89
C=CCN1CCC[C@H]1CNC(=O)c1cc(I)ccc1OC | 6.20
C=CCN1CCC[C@H]1CNC(=O)c1cc(CCCF)ccc1OC | 5.52
C=CCN1CCC[C@H]1CNC(=O)c1cc(Br)ccc1OC | 5.77

[ask] Which pKi reading was recorded for the compound CCN1CCC[C@H]1CNC(=O)c1c(O)c(Cl)cc(Cl)c1OC [RACLOPRIDE] ?
[reply] 5.51

[ask] Same again, this time with CCN1CCC[C@H]1CNC(=O)c1c(OC)ccc(I)c1O [IOLOPRIDE]
[reply] 6.24

[ask] One more compound: `C=CCN1CCC[C@H]1CNC(=O)c1cc(Br)cc(OC)c1OC`
[reply] 6.68

====

assay: Displacement of [3H]prazosin from adrenergic-alpha-1 receptor in pig cortical membrane
experimental-readout: Ki (nM)
I only need the number, in nM, no unit after it.

# annotated cases, reported Ki shown
C=CCN1CCC[C@H]1CNC(=O)c1cc(I)cc(OC)c1OC | 1100
C=CCN1CCC[C@H]1CNC(=O)c1cc(CCCF)ccc1OC | 1900
C=CCN1CCC[C@H]1CNC(=O)c1cc(CCCF)cc(OC)c1OC [FALLYPRIDE] | 970
C=CCN1CCC[C@H]1CNC(=O)c1cc(Br)cc(OC)c1OC | 1600
CCN1CCC[C@H]1CNC(=O)c1c(OC)ccc(I)c1O [IOLOPRIDE] | 1900
C=CCN1CCC[C@H]1CNC(=O)c1cc(I)ccc1OC | 2000
CCN1CCC[C@H]1CNC(=O)c1c(O)c(Cl)cc(Cl)c1OC [RACLOPRIDE] | 3000

Consider the additional compound presented here.
[ask] Fill in: Ki of `C=CCN1CCC[C@H]1CNC(=O)c1cc(Br)ccc1OC` is ___
[reply] 2000

====

biological target: D(3) dopamine receptor (Homo sapiens, UniProt P35462); experiment: Displacement of [3H]spiperone from dopamine D3 receptor in CHO cells
Sequence (P35462 whole entry): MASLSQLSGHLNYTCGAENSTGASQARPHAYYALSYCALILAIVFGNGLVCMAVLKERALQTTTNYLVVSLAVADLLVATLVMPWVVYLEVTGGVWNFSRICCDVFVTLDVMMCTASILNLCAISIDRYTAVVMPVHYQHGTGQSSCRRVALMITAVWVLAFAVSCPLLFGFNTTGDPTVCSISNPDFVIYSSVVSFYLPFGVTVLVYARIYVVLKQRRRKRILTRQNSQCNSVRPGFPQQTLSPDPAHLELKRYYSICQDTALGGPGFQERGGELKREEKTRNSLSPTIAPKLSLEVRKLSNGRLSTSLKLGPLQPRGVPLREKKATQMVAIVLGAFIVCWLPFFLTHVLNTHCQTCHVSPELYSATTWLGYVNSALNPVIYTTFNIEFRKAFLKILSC
Field 'label' (enum: yes / no). Set to yes when Ki is strictly under 4 nM; else no.

C=CCN1CCC[C@H]1CNC(=O)c1cc(I)ccc1OC | no
C=CCN1CCC[C@H]1CNC(=O)c1cc(Br)ccc1OC | no
C=CCN1CCC[C@H]1CNC(=O)c1cc(Br)cc(OC)c1OC | yes
C=CCN1CCC[C@H]1CNC(=O)c1cc(I)cc(OC)c1OC | yes
CCN1CCC[C@H]1CNC(=O)c1c(O)c(Cl)cc(Cl)c1OC [RACLOPRIDE] | no
CCN1CCC[C@H]1CNC(=O)c1c(OC)ccc(I)c1O [IOLOPRIDE] | no

[ask] Is Ki of `C=CCN1CCC[C@H]1CNC(=O)c1cc(CCCF)ccc1OC` strictly below 4 nM?
[reply] no

====

test: Displacement of [3H]8HO-DPAT from serotonin 5-HT1A receptor in pig cortical membrane
Here the recorded pKi is given for each entry.
API: returns pKi as number; meaning -log10 of concentration in mol/L.

CCN1CCC[C@H]1CNC(=O)c1c(O)c(Cl)cc(Cl)c1OC [RACLOPRIDE] | 5.36
C=CCN1CCC[C@H]1CNC(=O)c1cc(I)cc(OC)c1OC | 6.82
C=CCN1CCC[C@H]1CNC(=O)c1cc(CCCF)ccc1OC | 5.64
CCN1CCC[C@H]1CNC(=O)c1c(OC)ccc(I)c1O [IOLOPRIDE] | 5.96
C=CCN1CCC[C@H]1CNC(=O)c1cc(Br)cc(OC)c1OC | 6.85

[ask] Endpoint output: pKi of `C=CCN1CCC[C@H]1CNC(=O)c1cc(Br)ccc1OC` . Value?
[reply] 6.64

[ask] One more compound: C=CCN1CCC[C@H]1CNC(=O)c1cc(CCCF)cc(OC)c1OC [FALLYPRIDE]
[reply] 5.96

[ask] Check `C=CCN1CCC[C@H]1CNC(=O)c1cc(I)ccc1OC` too.
[reply] 6.77

====

molecular target: D(2) dopamine receptor (Homo sapiens); test: Displacement of [3H]spiperone from dopamine D2long receptor in CHO cells; type: cell-based
Assign labels as follows, please: 1.0 for Ki below 4 nM; 0.0 for Ki equal to or exceeding 4 nM.

Please review the entries below; each comes with its answer.
C=CCN1CCC[C@H]1CNC(=O)c1cc(CCCF)cc(OC)c1OC [FALLYPRIDE] | 1.0
CCN1CCC[C@H]1CNC(=O)c1c(OC)ccc(I)c1O [IOLOPRIDE] | 0.0
C=CCN1CCC[C@H]1CNC(=O)c1cc(Br)ccc1OC | 0.0
C=CCN1CCC[C@H]1CNC(=O)c1cc(Br)cc(OC)c1OC | 1.0
C=CCN1CCC[C@H]1CNC(=O)c1cc(I)ccc1OC | 0.0
C=CCN1CCC[C@H]1CNC(=O)c1cc(I)cc(OC)c1OC | 1.0

Field: next compound
[ask] Decide: Ki of `C=CCN1CCC[C@H]1CNC(=O)c1cc(CCCF)ccc1OC` strictly below 4 nM?
[reply] 0.0
